molecular target: NR1/NR2B (Homo sapiens (Human), UniProt Q13224); test: Cell assay: FDSS Ca2+ influx inhibition in HEK293 cells expressing NR1/NR2B; conditions: read-out: NR2B NAM IC50; HEK293 cells expressing NR1/NR2B, Ca2+ influx;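 further: Fluo-8 Ca2+ signal read on Hamamatsu FDSS 6000 after glutamate, glycine and Ca2+ challenge following 10 min compound preincubation, end/baseline fluorescence ratio compared with MK801 control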
Sequence (Q13224 27-1484, other chains not shown): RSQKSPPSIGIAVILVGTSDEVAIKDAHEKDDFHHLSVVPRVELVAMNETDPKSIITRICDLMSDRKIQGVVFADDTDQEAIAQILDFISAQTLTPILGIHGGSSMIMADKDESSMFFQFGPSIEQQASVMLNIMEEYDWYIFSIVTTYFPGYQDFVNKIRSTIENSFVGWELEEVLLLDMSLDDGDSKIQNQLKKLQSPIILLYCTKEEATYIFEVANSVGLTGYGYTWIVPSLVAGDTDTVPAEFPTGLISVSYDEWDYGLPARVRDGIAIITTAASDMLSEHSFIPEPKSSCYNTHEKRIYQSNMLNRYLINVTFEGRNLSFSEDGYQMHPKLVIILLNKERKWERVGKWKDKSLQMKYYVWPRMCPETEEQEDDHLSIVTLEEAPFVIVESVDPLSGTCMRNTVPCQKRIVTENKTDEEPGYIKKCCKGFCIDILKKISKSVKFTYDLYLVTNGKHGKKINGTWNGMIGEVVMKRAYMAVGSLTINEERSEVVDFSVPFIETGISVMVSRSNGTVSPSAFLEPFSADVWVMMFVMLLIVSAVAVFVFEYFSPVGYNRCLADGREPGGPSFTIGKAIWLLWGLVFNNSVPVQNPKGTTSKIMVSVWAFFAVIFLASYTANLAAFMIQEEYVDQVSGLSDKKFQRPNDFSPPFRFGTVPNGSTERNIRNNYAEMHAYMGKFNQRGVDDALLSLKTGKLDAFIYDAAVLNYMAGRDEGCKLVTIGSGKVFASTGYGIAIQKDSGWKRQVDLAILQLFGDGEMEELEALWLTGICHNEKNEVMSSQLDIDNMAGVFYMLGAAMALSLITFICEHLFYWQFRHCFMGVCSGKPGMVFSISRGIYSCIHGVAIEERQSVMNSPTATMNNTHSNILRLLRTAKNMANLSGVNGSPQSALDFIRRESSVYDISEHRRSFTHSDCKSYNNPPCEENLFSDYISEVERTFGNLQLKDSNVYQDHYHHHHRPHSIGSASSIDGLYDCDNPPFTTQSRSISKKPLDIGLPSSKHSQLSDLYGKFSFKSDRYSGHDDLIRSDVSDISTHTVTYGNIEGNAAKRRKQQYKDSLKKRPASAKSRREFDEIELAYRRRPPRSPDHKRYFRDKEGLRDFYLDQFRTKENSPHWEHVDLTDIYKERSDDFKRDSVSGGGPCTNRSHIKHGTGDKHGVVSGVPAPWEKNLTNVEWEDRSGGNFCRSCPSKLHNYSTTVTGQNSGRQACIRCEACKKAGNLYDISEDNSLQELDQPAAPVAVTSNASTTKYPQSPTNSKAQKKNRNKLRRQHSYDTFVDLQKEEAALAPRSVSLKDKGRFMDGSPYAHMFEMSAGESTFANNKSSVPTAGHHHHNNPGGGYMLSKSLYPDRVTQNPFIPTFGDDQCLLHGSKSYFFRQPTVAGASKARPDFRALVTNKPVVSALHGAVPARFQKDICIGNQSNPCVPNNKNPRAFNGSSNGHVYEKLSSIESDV
measured-quantity: log10 IC50 (log10 of the value in µM)
Recorded IC50 (log10, µM)

Enquiry: Recorded log10 IC50 for `O=C(CN1C[C@@H]2C[C@@](O)(Cc3cccc(F)c3F)C[C@@H]2C1)c1ccc(O)cn1` , please?
Return: 0.49

Enquiry: Requested field: log10 IC50. Item: `O=C(CN1C[C@@H]2C[C@@](O)(Cc3ccccc3Cl)C[C@@H]2C1)c1ccc(O)cn1`
Return: 0.30

Enquiry: Field request: log10 IC50 | item: `O=C(Nc1ccc(Cl)c(C(F)(F)F)c1)N1C[C@H]2C[C@@H](c3ccccc3)C[C@H]2C1`
Return: 1.00

Enquiry: So what does the record say about log10 IC50 for `COc1cccc(C[C@]2(O)C[C@H]3CN(CC(=O)c4ccc(O)cn4)C[C@H]3C2)c1` ?
Return: 1.00

Enquiry: Which measured log10 IC50 value corresponds to `O=C(CN1C[C@H]2C[C@@H](c3ccccc3)C[C@H]2C1)c1ccc(O)cc1` ?
Return: -0.63

Enquiry: Need log10 IC50, item `N#Cc1cccc(NC(=O)N2C[C@H]3C[C@@H](c4ccccc4)C[C@H]3C2)c1`
Return: 1.00

Enquiry: Fill blank: measured log10 IC50 of the compound `O=C(CN1C[C@@H]2C[C@](O)(Cc3ccccc3)C[C@@H]2C1)c1ccc(O)cc1` is ____.
Return: -1.12

Enquiry: Which value of log10 IC50 has been reported for `COc1ccc(C)cc1NC(=O)N1C[C@H]2C[C@@H](c3ccccc3)C[C@H]2C1` in the records?
Return: 1.00

Enquiry: // returns reported log10 IC50 for input `O=C(CN1C[C@@H]2C[C@@](O)(Cc3cccs3)C[C@@H]2C1)c1ccc(O)c(F)c1`
Return: -0.95

Enquiry: Need log10 IC50, item `O=C(CN1C[C@@H]2CN(Cc3ccccc3)C[C@@H]2C1)c1ccc(O)cn1`
Return: 1.00

Enquiry: Name the recorded log10 IC50 for `O=C(CN1C[C@@H]2C[C@@](O)(CC3CC3)C[C@@H]2C1)c1ccc(O)cc1` .
Return: 1.00

Enquiry: Param item = `O=C(CN1C[C@@H]2C[C@@](O)(Cc3ccccc3)C[C@@H]2C1)c1cccc(-c2ccc(O)cc2)c1` ; retrieve measured log10 IC50.
Return: 1.00

Enquiry: State the recorded log10 IC50 for this entry: `Cc1cccc(N2C[C@@H]3C[C@@](O)(c4ccc(F)cc4)C[C@@H]3C2)n1`
Return: 1.00

Enquiry: What value of log10 IC50 has been reported for the following compound? `COc1ccccc1NC(=O)N1C[C@@H]2C[C@@](O)(Cc3ccccc3)C[C@@H]2C1`
Return: 1.00

Enquiry: Record request: log10 IC50 value, item `O=C(CN1C[C@@H]2C[C@@](O)(c3cccnc3F)C[C@@H]2C1)c1ccc(O)cn1`
Return: 1.00

Enquiry: // query log10 IC50 value for entry `O=C(CN1C[C@@H]2C[C@@](O)(Cc3c(F)cccc3F)C[C@@H]2C1)c1ccc(O)cc1`
Return: -0.93

Enquiry: Recorded log10 IC50 for `COc1ccc(NC(=O)N2C[C@@H]3C[C@@](O)(c4ccccc4)C[C@@H]3C2)cc1` , please?
Return: 1.00

Enquiry: Fill in the blank: the reported log10 IC50 of `Cc1cccc(N2C[C@@H]3C[C@@](O)(c4ccc(C(C)(C)C)cc4)C[C@@H]3C2)n1` is ____.
Return: 1.00

Enquiry: Need log10 IC50 of `COc1cccc(-c2cccc(C(=O)CN3C[C@@H]4C[C@@](O)(Cc5ccccc5)C[C@@H]4C3)c2)c1` , thanks.
Return: 1.00

Enquiry: Look at this compound and give its reported log10 IC50. `O=C(CN1C[C@@H]2C[C@@](O)(Cc3c(F)cccc3F)C[C@@H]2C1)c1ccc(O)cn1`
Return: 0.28

Enquiry: Give the measured log10 IC50 of `CC(C)(O)c1ccc(C(=O)CN2C[C@@H]3C[C@@](O)(Cc4ccccc4)C[C@@H]3C2)cc1` .
Return: 1.00

Enquiry: Dear colleague, I am looking for the recorded log10 IC50 of the following compound: `COc1ccccc1CNC(=O)N1C[C@H]2C[C@@H](c3ccccc3)C[C@H]2C1`
Return: 1.00
